- SYSTEM_TESTED: α-synuclein (UniProt P37840 1-140); further: test concentration or dose not given here
- TEST_METHOD_NOTES: cell-based or functional assay
Non-standard residues stand in square brackets, D forms with d.
The entries below come with measured % decrease in ThT fluorescence values attached.

# BINDER, % decrease in ThT fluorescence / %
data = [
    ("Ac-[dH][dH][dT][dL][dV][dA]-NH2 (SMILES CC(=O)N[C@H](Cc1c[nH]cn1)C(=O)N[C@H](Cc1c[nH]cn1)C(=O)N[C@@H](C(=O)N[C@H](CC(C)C)C(=O)N[C@@H](C(=O)N[C@H](C)C(N)=O)C(C)C)[C@H](C)O) [ZP-0181]", 22.8),
    ("Ac-[dQ][dY][dP][dV][dL][dI]-NH2 (SMILES CC[C@@H](C)[C@@H](NC(=O)[C@@H](CC(C)C)NC(=O)[C@H](NC(=O)[C@H]1CCCN1C(=O)[C@@H](Cc1ccc(O)cc1)NC(=O)[C@@H](CCC(N)=O)NC(C)=O)C(C)C)C(N)=O) [ZP-0206]", 3.3),
    ("Ac-[dH][dH][dV][dI][dV][dY]-NH2 (SMILES CC[C@@H](C)[C@@H](NC(=O)[C@H](NC(=O)[C@@H](Cc1c[nH]cn1)NC(=O)[C@@H](Cc1c[nH]cn1)NC(C)=O)C(C)C)C(=O)N[C@@H](C(=O)N[C@H](Cc1ccc(O)cc1)C(N)=O)C(C)C) [ZP-0171]", 13.9),
    ("H-[dQ][dY][dS][dV][dL][dV]-NH2 (SMILES CC(C)C[C@@H](NC(=O)[C@H](NC(=O)[C@@H](CO)NC(=O)[C@@H](Cc1ccc(O)cc1)NC(=O)[C@H](N)CCC(N)=O)C(C)C)C(=O)N[C@@H](C(N)=O)C(C)C) [ZP-0229]", 17.8),
    ("Ac-[dH][dH][dV][dL][dV][dA]-NH2 (SMILES CC(=O)N[C@H](Cc1c[nH]cn1)C(=O)N[C@H](Cc1c[nH]cn1)C(=O)N[C@@H](C(=O)N[C@H](CC(C)C)C(=O)N[C@@H](C(=O)N[C@H](C)C(N)=O)C(C)C)C(C)C) [ZP-0160]", 8.8),
    ("H-[dQ][dY][dK][dV][dL][dI]-NH2 (SMILES CC[C@@H](C)[C@@H](NC(=O)[C@@H](CC(C)C)NC(=O)[C@H](NC(=O)[C@@H](CCCCN)NC(=O)[C@@H](Cc1ccc(O)cc1)NC(=O)[C@H](N)CCC(N)=O)C(C)C)C(N)=O) [ZP-0222]", 42.3),
]

// provenance: patent US8290713
